- systemName: hSTING(R232) (Homo sapiens, UniProt Q86WV6, H232R)
- Sequence (Q86WV6 whole entry H232R): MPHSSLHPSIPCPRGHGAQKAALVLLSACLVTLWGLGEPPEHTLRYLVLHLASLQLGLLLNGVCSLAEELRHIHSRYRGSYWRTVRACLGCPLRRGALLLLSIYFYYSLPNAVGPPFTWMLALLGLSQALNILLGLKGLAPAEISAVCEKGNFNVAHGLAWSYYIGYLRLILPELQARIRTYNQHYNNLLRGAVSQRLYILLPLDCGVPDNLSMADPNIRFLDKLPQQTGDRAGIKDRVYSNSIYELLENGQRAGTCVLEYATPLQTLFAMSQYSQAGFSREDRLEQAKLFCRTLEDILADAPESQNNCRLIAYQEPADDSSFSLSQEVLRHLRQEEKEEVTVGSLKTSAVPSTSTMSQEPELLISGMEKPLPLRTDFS
- experimentalProtocol: Luciferase reporter assay in HEK293T-hSTING-Luciferase cells, R232 (wild type) human STING
- Type: cell-based
- testContext: 20 hr stimulation, read-out: R232 human activity (EC50 range)
The entries below come with measured EC50 values attached.

Q) Entry CN1Cc2ccc(C(=O)NCc3cccc(-c4ccn(C)n4)c3)cc2N(Cc2c(F)cccc2Cl)C1=O : reported EC50 = ?
A) > 10000 nM

***
Q) // returns reported EC50 for input Cc1ccc(CNC(=O)c2ccc3c(c2)N(Cc2cc(F)cc(F)c2)C(=O)N(C)C3)o1
A) > 10000 nM

Q) Now try CN1Cc2ccc(C(=O)NCc3cccc4c3OCO4)cc2N(Cc2c(F)cccc2Cl)C1=O .
A) > 10000 nM

Q) Another molecule to look at: COc1cnc(C)c(F)c1CN1C(=O)N(C)[C@@H](C)c2ccc(C(=O)NCc3c(F)cc(F)cc3F)cc21
A) < 1000 nM

Q) Also check C[C@H]1c2ccc(C(=O)NCc3c(F)cc(F)cc3F)cc2N(Cc2c(F)ccc(OCCCOP(=O)(O)O)c2Cl)C(=O)N1C
A) < 1000 nM

Q) Next molecule: C[C@H]1c2ccc(C(=O)NCc3c(F)cc(F)cc3F)cc2N(Cc2c(F)cc(F)cc2OCCCO)C(=O)N1C
A) < 1000 nM

Q) What about this molecule? C[C@H]1c2ccc(C(=O)NCc3c(F)cc(F)cc3F)cc2N(Cc2cc(O)ccc2F)C(=O)N1C
A) < 1000 nM

Q) Now consider C[C@H]1c2ccc(C(=O)NCc3c(F)cc(F)cc3F)cc2N(Cc2c(F)ccc(C(=O)NCCO)c2F)C(=O)N1C and answer again.
A) < 1000 nM

Q) Please give the result for COc1cccc(F)c1CN1C(=O)N(C)C(C)c2ccc(C(=O)NCc3c(F)cc(F)cc3F)cc21 (stereo not drawn) [Example 153] too.
A) < 1000 nM

Q) Another molecule: CC1c2ccc(C(=O)NCc3c(F)cc(F)cc3F)cc2N(Cc2cc(OCC(=O)O)ccc2F)C(=O)N1C (stereo not drawn)
A) > 10000 nM

====

- systemName: hSTING(R232) (Homo sapiens, UniProt Q86WV6, H232R)
- experimentalProtocol: Luciferase reporter assay in HEK293T-hSTING-Luciferase cells, R232 (wild type) human STING
- Format: cell-based
- testContext: 20 hr stimulation, read-out: R232 human activity (EC50 range)
pEC50: −log10 of the molar value.
Reported values of pEC50 for individual entries

Q) For C[C@H]1c2ccc(C(=O)NCc3c(F)cc(F)cc3F)cc2N(Cc2c(F)cc(OCOP(=O)(O)O)cc2F)C(=O)N1C [Example 83] , what is its reported pEC50?
A) > 6.00

Then this compound:
Q) Tell me the measured pEC50 of CC1c2ccc(C(=O)NCc3c(F)cc(F)cc3F)cc2N(Cc2c(F)cccc2OC(F)F)C(=O)N1C (stereo not drawn) [Example 216] , please.
A) > 6.00

====

- systemName: hSTING(R232) (Homo sapiens, UniProt Q86WV6, H232R)
- experimentalProtocol: Luciferase reporter assay in HEK293T-hSTING-Luciferase cells, R232 (wild type) human STING
- Format: cell-based
- testContext: 20 hr stimulation, read-out: R232 human activity (EC50 range)
pEC50: −log10 of the molar value.
# reported pEC50; entries follow

// below: answered compounds
Q) Can you look up the measured pEC50 of COc1ccc(F)c(F)c1CN1C(=O)N(C)[C@@H](C)c2ccc(C(=O)NCc3c(F)cc(F)cc3F)cc21 [Example 241] for me?
A) > 6.00

Q) # iterate: COc1ccc(F)c(CN2C(=O)N(C)[C@@H](C)c3ccc(C(=O)NCc4c(F)cc(F)cc4F)cc32)c1Cl [Example 88]
A) > 6.00

Q) Now consider CC1c2ccc(C(=O)NCc3c(F)cc(F)cc3F)cc2N(Cc2ccc(O)cc2F)C(=O)N1C (stereo not drawn) [Example 181] and answer again.
A) > 6.00

Q) # iterate: CN1Cc2ncc(C(=O)NCc3cc4ccccc4o3)cc2N(Cc2c(F)cccc2Cl)C1=O [Example 73]
A) < 5.00

Q) What would you report for C[C@H]1c2ccc(C(=O)NCc3cccc(OCCO)c3F)cc2N(Cc2c(F)cccc2Cl)C(=O)N1C [Example 276] ?
A) < 5.00

Continuing:
Q) Query (compound): C[C@H]1c2ccc(C(=O)NCc3c(F)cc(F)cc3F)cc2N(Cc2cc(CO)ccc2F)C(=O)N1C (stereo in doubt) [Example 268] ; field requested: pEC50
A) > 6.00

Q) Continue with Cc1oc(-c2ccc(F)cc2)nc1CN1C(=O)N(C)Cc2ccc(C(=O)NCc3c(F)cc(F)cc3F)cc21 [Example 42]
A) 5.00 to 6.00

Q) Repeat for the following compound: C[C@H]1c2ccc(C(=O)NCc3c(F)cc(F)cc3F)cc2N(Cc2c(N)ccc(F)c2F)C(=O)N1C [Example 285]
A) > 6.00

Q) Now consider C[C@H]1c2ccc(C(=O)NCc3c(F)cc(F)cc3F)cc2N(Cc2c(F)cc(OCCOC(=O)CN)cc2F)C(=O)N1C [Example 187] .
A) > 6.00

Q) Again, but for CC1c2ccc(C(=O)NCc3c(F)cc(F)cc3F)cc2N(Cc2ccccc2)C(=O)N1C (stereo not drawn) [Example 190]
A) > 6.00

Q) Then what about the compound CC(=O)Nc1cccc(F)c1CN1C(=O)N(C)C(C)c2ccc(C(=O)NCc3c(F)cc(F)cc3F)cc21 (stereo not drawn) [Example 226] ?
A) 5.00 to 6.00

Q) Another compound to look at: CC1c2ccc(C(=O)NCc3c(F)cc(F)cc3F)cc2N(Cc2c(F)cccc2NS(C)(=O)=O)C(=O)N1C (stereo not drawn) [Example 225]
A) 5.00 to 6.00

Q) Entry to check: CN1Cc2ccc(C(=O)NCc3cc4cc(N)ccc4o3)cc2N(Cc2c(F)cccc2Cl)C1=O [Example 58]
A) < 5.00

Q) Lookup CN1Cc2ccc(C(=O)NCc3cc4cc(F)ccc4o3)cc2N(Cc2c(F)cccc2Cl)C1=O [Example 24]
A) 5.00 to 6.00

Q) Please give the result for COc1cccc(CN2C(=O)N(C)[C@@H](C)c3ccc(C(=O)NCc4c(F)cc(F)cc4F)cc32)c1F [Example 279] too.
A) > 6.00

====

- systemName: hSTING(H232) (Homo sapiens)
- Sequence (Q86WV6 whole entry): as the sequence (Q86WV6 whole entry H232R) above, with R232H counted along it
- experimentalProtocol: Luciferase reporter assay in HEK293T-hSTING-Luciferase cells, H232/REF polymorph
- testContext: H232/REF polymorph of human STING, EC50 range class
// values below are reported EC50

The following compounds have reported results that may help.
Q) So what's the measured EC50 for this one? CC1c2ccc(C(=O)NCc3ccc(O)cc3)cc2N(Cc2c(F)cccc2Cl)C(=O)N1C (stereo not drawn)
A) 1000 to 10000 nM

Q) Follow-up item: C[C@H]1c2ccc(C(=O)NCc3c(F)cc(F)cc3F)cc2N(Cc2c(F)ccc(N)c2Cl)C(=O)N1C
A) < 1000 nM

Q) What about COc1cccc(F)c1CN1C(=O)N(C)C(C)c2ccc(C(=O)NCc3c(F)cc(F)cc3F)cc21 (stereo not drawn) [Example 153] ?
A) < 1000 nM

Q) # repeat for Cc1cc(CN2C(=O)N(C)C(C)c3ccc(C(=O)NCc4c(F)cc(F)cc4F)cc32)c(F)cn1 (stereo not drawn)
A) < 1000 nM

Q) Same thing, different compound: C[C@H]1c2ccc(C(=O)NCc3c(F)cc(F)cc3F)cc2N(Cc2c(N)ccc(F)c2F)C(=O)N1C
A) < 1000 nM

---
Q) Any idea what its EC50 is? The compound is C[C@H]1c2ccc(C(=O)NCc3c(F)cc(F)cc3F)cc2N(Cc2cc(O)ccc2F)C(=O)N1C
A) < 1000 nM

Q) Now consider C[C@H]1c2ccc(C(=O)NCc3c(F)cc(F)cc3F)cc2N(Cc2ccc(N=[N+]=[N-])cc2)C(=O)N1C and answer again.
A) 1000 to 10000 nM

Q) Another: COc1cc(F)c(CNC(=O)c2ccc3c(c2)N(Cc2c(F)cccc2Cl)C(=O)N(C)[C@H]3C)c(F)c1
A) < 1000 nM

Q) Consider next the compound COc1cc(F)c(CN2C(=O)N(C)[C@@H](C)c3ccc(C(=O)NCc4c(F)cc(F)cc4F)cc32)c(Cl)c1 in the same way.
A) < 1000 nM

Q) Also COc1ccc(F)c(F)c1CN1C(=O)N(C)[C@@H](C)c2ccc(C(=O)NCc3c(F)cc(F)cc3F)cc21 , if possible.
A) < 1000 nM

Q) What about this compound? CC1c2ccc(C(=O)NCc3c(F)cc(F)cc3F)cc2N(Cc2c(O)cccc2F)C(=O)N1C (stereo not drawn)
A) < 1000 nM

Q) Try this compound next: CC(=O)Nc1ccc(COC(=O)Oc2cc(F)c(CN3C(=O)N(C)[C@@H](C)c4ccc(C(=O)NCc5c(F)cc(F)cc5F)cc43)c(F)c2)cc1
A) < 1000 nM
